# SYSTEM_NAME: human SLC6A19 and TMEM27 (Homo sapiens, UniProt Q695T7)
# Construct: expressed in transfected cells
# EXPERIMENT_DESCRIPTION: Radiolabelled (3H) leucine uptake in CHO cells with doxycycline-inducible expression of human SLC6A19 and TMEM27 (Example B-1)
# Type: cell-based
# CONDITION_CONTEXT: CHO cells with doxycycline-inducible expression of human SLC6A19 and TMEM27, read-out: SLC6A19_Radioligand Uptake Assay IC50
ASSAY_READOUT: pIC50
Entry type: numeric. Quantity: pIC50, the -log10 of concentration in molar units.

Exercise: Give human SLC6A19 and TMEM27 (Homo sapiens, UniProt Q695T7) pIC50 for CC1(C(=O)NCc2cc3cc(Cl)c(OCc4ncccc4F)cc3[nH]2)CC1 [Compound 26]
Key: 6.83

Exercise: Record CC(F)(F)C(=O)NCc1cc2cc(F)c(OCc3cscn3)cc2[nH]1 [Compound 436] : what is its pIC50 with human SLC6A19 and TMEM27 (Homo sapiens, UniProt Q695T7)?
Key: 7.01

###

Reported IC50 values follow for various compounds
# SYSTEM_NAME: human SLC6A19 and TMEM27 (Homo sapiens)
# Construct: expressed in transfected cells
# EXPERIMENT_DESCRIPTION: Radiolabelled (3H) leucine uptake in CHO cells with doxycycline-inducible expression of human SLC6A19 and TMEM27 (Example B-1)
# Assay type: cell-based
# CONDITION_CONTEXT: CHO cells with doxycycline-inducible expression of human SLC6A19 and TMEM27, read-out: SLC6A19_Radioligand Uptake Assay IC50
Dear colleague, please return just the value in nM, with no unit written.

Use these answered entries as a reference point.
>  <COMPOUND>
Cc1cc(COc2cc3[nH]c(CNC(=O)[C@H](C)O)cc3cc2F)on1 [Compound 239]

>  <IC50 (nM)>
5880

$$$$
>  <COMPOUND>
C[C@H]1CCCN1C(=O)NCc1cc2cc(F)c(OCc3ccon3)cc2[nH]1 [Compound 384]

>  <IC50 (nM)>
1570

$$$$
>  <COMPOUND>
CN(Cc1cn[nH]c1)C(=O)NCc1cc2ccc(OCc3cscn3)cc2[nH]1 [Compound 628]

>  <IC50 (nM)>
2670

$$$$
>  <COMPOUND>
[2H]C([2H])([2H])C1(C(=O)NCc2cc3cc(F)c(OCc4cscn4)cc3[nH]2)CC1 [Compound 482]

>  <IC50 (nM)>
149

$$$$
>  <COMPOUND>
CC(=O)NCc1cc2cc(Cl)c(OCc3ccno3)cc2[nH]1 [Compound 219]

>  <IC50 (nM)>
134

$$$$

Next:
Exercise: Consider the compound CC1(C(=O)NCc2cc3cc(Cl)c(OCc4ccno4)cc3[nH]2)CC1 [Compound 326] and give its measured IC50.
Key: 196

###

# SYSTEM_NAME: human SLC6A19 and TMEM27 (Homo sapiens, UniProt Q695T7)
# Construct: expressed in transfected cells
# Sequence (Q695T7 1-634): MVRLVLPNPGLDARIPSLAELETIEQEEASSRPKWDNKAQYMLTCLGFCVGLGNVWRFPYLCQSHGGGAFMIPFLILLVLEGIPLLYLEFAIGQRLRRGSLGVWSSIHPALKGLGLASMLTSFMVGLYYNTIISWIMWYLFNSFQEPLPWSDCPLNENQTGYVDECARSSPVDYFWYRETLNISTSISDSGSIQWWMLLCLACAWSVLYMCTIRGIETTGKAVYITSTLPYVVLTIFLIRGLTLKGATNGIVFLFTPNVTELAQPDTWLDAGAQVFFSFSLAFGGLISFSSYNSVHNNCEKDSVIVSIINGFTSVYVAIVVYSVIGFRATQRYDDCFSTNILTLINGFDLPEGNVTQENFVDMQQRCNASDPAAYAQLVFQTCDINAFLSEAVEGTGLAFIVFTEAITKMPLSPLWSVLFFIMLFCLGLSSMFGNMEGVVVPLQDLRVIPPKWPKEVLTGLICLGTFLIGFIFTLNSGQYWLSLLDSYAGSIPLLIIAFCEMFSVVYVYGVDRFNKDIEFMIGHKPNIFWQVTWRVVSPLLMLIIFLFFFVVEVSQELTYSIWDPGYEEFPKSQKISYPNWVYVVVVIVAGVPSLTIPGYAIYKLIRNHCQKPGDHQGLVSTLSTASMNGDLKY
# Sequence (Q9HBJ8 15-222 partner): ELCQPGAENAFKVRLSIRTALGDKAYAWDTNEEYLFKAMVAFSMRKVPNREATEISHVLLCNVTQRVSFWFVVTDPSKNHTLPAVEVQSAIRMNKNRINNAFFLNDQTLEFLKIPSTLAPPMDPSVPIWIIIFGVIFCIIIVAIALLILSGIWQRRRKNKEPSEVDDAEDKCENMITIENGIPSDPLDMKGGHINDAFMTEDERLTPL
# EXPERIMENT_DESCRIPTION: Radiolabelled (3H) leucine uptake in CHO cells with doxycycline-inducible expression of human SLC6A19 and TMEM27 (Example B-1)
# Type: cell-based
# CONDITION_CONTEXT: CHO cells with doxycycline-inducible expression of human SLC6A19 and TMEM27, read-out: SLC6A19_Radioligand Uptake Assay IC50
Measured IC50 values are reported for all entries that follow.
The figure you give is taken to be in nM; do not add the unit.

Solved entries (count: 3):
>  <MOLECULE>
O=C(NCc1cc2cc(Cl)c(OCc3cccc(F)n3)cc2[nH]1)N1CCCC1 [Compound 425]

>  <IC50 (nM)>
315

$$$$
>  <MOLECULE>
CC1(C(=O)NCc2cc3cc(CCC#N)c(OCc4ccon4)cc3[nH]2)CC1 [Compound 642]

>  <IC50 (nM)>
2740

$$$$
>  <MOLECULE>
O=C(NCc1cc2cc(Cl)c(OCc3cscn3)cc2[nH]1)[C@@H]1CCOC1 [Compound 316]

>  <IC50 (nM)>
284

$$$$

Exercise: Form field: reported IC50 of Cc1cc(COc2cc3[nH]c(CNC(=O)N4CCC4)cc3cc2Cl)on1 [Compound 404]
Key: 268

###

IC50 values by entry
# SYSTEM_NAME: human SLC6A19 and TMEM27 (Homo sapiens, UniProt Q695T7)
# Construct: expressed in transfected cells
# EXPERIMENT_DESCRIPTION: Radiolabelled (3H) leucine uptake in CHO cells with doxycycline-inducible expression of human SLC6A19 and TMEM27 (Example B-1)
# Format: cell-based
# CONDITION_CONTEXT: CHO cells with doxycycline-inducible expression of human SLC6A19 and TMEM27, read-out: SLC6A19_Radioligand Uptake Assay IC50
Report the figure in µM without appending any unit label.

>  <MOLECULE>
CC1(C(=O)NCc2cc3cc(OC(F)(F)F)c(OCc4ccon4)cc3[nH]2)CC1 [Compound 508]

>  <READOUT_UNITS>
µM

>  <RECORDED_VALUE>
0.293

$$$$
>  <MOLECULE>
CN(Cc1cn[nH]c1)C(=O)NCc1cc2cc(Cl)c(OCc3ccon3)cc2[nH]1 [Compound 629]

>  <READOUT_UNITS>
µM

>  <RECORDED_VALUE>
1.07

$$$$
>  <MOLECULE>
C[C@H]1CCCN1C(=O)NCc1cc2cc(F)c(OCc3cscn3)cc2[nH]1 [Compound 385]

>  <READOUT_UNITS>
µM

>  <RECORDED_VALUE>
0.549

$$$$

Shifting focus to the molecule that follows.
Exercise: Entry CC1(C(=O)NCc2cc3cc(Cl)c(NCc4cscn4)cc3[nH]2)CC1 [Compound 452] , system human SLC6A19 and TMEM27 (Homo sapiens, UniProt Q695T7): what IC50 was measured?
Key: 0.145

###

# SYSTEM_NAME: human SLC6A19 and TMEM27 (Homo sapiens, UniProt Q695T7)
# Construct: expressed in transfected cells
# EXPERIMENT_DESCRIPTION: 13C6,15N-isoleucine uptake in CHO cells with doxycycline-inducible expression of human SLC6A19 and TMEM27, RapidFire mass spectrometry (Example B-2)
# Format: cell-based
# CONDITION_CONTEXT: read-out: SLC6A19_RapidFire Uptake Assay IC50
ASSAY_READOUT: IC50 (nM)
# value in nM; strip the unit string

Below, 5 molecules whose answers are already recorded.
>  <SMILES_REPRESENTATION>
Cc1cc(COc2cc3[nH]c(CNC(=O)N4CCCC4)cc3cc2Cl)on1

>  <RECORDED_VALUE>
50

$$$$
>  <SMILES_REPRESENTATION>
CC1(C(=O)NCc2cc3ccc(OCc4ccno4)cc3[nH]2)CC1

>  <RECORDED_VALUE>
493

$$$$
>  <SMILES_REPRESENTATION>
CC1(C(=O)NCc2cc3c(F)cc(OCc4ccon4)cc3[nH]2)CC1

>  <RECORDED_VALUE>
92

$$$$
>  <SMILES_REPRESENTATION>
Cc1nc(COc2cc3[nH]c(CNC(=O)N4CCC4)cc3cc2Cl)co1

>  <RECORDED_VALUE>
498

$$$$
>  <SMILES_REPRESENTATION>
CC(C)(C)C(=O)NCc1cc2cc(Cl)c(OCc3cscn3)cc2[nH]1

>  <RECORDED_VALUE>
253

$$$$

Exercise: Would you mind telling me what IC50 value was observed for "CC1(C(=O)NCc2cc3cc(F)c(OCc4ccon4)cc3[nH]2)CCC1" ?
Key: 1780
